# tested.system: YKL-39 S143D/I145E active mutant (Homo sapiens, UniProt Q15782, I145E/S143D)
# Sequence (Q15782 27-390 S143D/I145E): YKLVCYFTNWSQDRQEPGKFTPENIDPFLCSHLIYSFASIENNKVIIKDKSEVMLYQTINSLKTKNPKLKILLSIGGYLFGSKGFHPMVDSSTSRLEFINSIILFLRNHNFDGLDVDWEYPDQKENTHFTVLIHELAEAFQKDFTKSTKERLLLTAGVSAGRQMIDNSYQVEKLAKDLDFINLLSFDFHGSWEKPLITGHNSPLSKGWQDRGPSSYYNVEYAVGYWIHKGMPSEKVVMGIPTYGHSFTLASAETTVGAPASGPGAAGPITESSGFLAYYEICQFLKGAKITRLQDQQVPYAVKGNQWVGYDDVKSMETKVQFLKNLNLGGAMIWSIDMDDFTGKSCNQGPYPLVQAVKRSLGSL
# assay.procedure: Chitinase activity assay, steady-state kinetics and inhibition
recorded.metric: pKi
Answers are plain numbers, as −log10 of the molar value.

Form: Entry = CCc1nc2c([nH]1)c(=O)n(CCCn1c(=O)c3c(ncn3C)n(C)c1=O)c(=O)n2C [bisdionin G] | System = YKL-39 S143D/I145E active mutant (Homo sapiens, UniProt Q15782, I145E/S143D) | pKi = ____
3.92
